- target: SHV-1 (Klebsiella pneumoniae, UniProt P0AD64)
- Sequence (P0AD64 22-286): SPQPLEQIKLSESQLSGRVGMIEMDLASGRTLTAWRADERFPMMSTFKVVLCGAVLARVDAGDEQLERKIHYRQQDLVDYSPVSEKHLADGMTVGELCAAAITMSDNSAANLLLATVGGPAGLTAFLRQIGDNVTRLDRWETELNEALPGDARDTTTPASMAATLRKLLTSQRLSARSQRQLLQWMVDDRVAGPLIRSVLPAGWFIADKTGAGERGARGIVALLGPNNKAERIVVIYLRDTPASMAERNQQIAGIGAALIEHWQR
- assay-procedure: β-lactamase inhibitory activity, nitrocefin hydrolysis
measurement-name: IC50 (nM)
# output: bare number, implied unit nM

# example entries with known answers
* Cn1c2c(sc1=O)C1CN(C2)C(=O)N1OS(=O)(=O)[O-].[Na+] (stereo not drawn) | 12
* O=C1N2Cc3c(sc(=O)n3CCO)C(C2)N1OS(=O)(=O)[O-].[Na+] (stereo not drawn) | 6

Could you now look at the following compound, please?
Q) Fill in: IC50 of N=C(N)NCCn1c2c(sc1=O)C1CN(C2)C(=O)N1OS(=O)(=O)[O-].[Na+] (stereo not drawn) is ___
A) 12

Just for reference, patent US10501481B2 is where these values come from.
